Numbers sourced from patent US12404241B2.

target: AR (Homo sapiens, UniProt P10275); construct: endogenous in cells; host or cells: VCaP cells; test: VCAP AR Degradation Assay; assay type: cell-based; conditions: class symbols *, **
Sequence (P10275 whole entry): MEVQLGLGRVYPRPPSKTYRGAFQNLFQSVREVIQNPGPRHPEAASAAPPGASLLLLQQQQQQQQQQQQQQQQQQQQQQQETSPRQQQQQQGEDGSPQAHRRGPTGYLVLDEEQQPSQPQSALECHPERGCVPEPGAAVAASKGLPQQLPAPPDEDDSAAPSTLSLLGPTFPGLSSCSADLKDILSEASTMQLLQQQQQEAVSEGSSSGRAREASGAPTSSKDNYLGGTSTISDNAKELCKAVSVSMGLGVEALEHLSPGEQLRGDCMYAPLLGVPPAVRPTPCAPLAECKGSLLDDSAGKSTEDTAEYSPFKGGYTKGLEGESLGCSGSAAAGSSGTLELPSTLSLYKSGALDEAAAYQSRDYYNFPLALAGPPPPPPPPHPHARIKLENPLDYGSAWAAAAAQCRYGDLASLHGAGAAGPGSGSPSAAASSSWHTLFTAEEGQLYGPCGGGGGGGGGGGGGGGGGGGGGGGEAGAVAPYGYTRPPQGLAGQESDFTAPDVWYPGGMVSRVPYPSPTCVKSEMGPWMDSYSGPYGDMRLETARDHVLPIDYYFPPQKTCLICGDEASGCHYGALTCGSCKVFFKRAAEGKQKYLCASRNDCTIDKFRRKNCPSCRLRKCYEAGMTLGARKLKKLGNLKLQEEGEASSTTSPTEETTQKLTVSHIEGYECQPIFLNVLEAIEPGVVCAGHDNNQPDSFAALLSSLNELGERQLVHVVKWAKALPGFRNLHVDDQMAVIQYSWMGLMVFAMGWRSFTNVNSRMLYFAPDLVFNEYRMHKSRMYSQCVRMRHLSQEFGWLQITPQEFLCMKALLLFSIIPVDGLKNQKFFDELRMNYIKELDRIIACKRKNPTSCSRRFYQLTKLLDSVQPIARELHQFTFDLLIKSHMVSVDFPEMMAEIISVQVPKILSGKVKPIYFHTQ
Structures can show the parent of a compound that is named as a salt.
observable: Y (AR degradation efficiency, % of DMSO control)

1. N#Cc1ccc(N2C(=O)C3(CCOC3)N(c3ccc(OCCN4CCN(CC(=O)Nc5cc(Cl)cc(NC6CCC(=O)NC6=O)c5)CC4)c(F)c3)C2=S)cc1C(F)(F)F (single isomer, unassigned) [Example 55] :: ** (25%<Y<=35%)
2. CCc1cc(N2C(=S)N(c3ccc(C#N)c(C(F)(F)F)c3)C(=O)C2(C)C)ccc1OCCN1CCN([C@H](C)C(=O)Nc2cccc(NC3CCC(=O)NC3=O)c2)[C@H](C)C1 (some centres unmarked) :: *** (35%<Y<50%)
3. CCc1cc(N2C(=S)N(c3cnc(C#N)c(C(F)(F)F)c3)C(=O)C2(C)C)ccc1OCCN1CCN(CC(=O)Nc2cc(NC3CCC(=O)NC3=O)ccc2F)CC1 (centres unmarked) :: * (0<Y<=25%)
4. CC(C)c1cc(N2C(=S)N(c3cnc(C#N)c(C(F)(F)F)c3)C(=O)C2(C)C)ccc1OCCN1CCN(CC(=O)Nc2cc(Cl)cc(NC3CCC(=O)NC3=O)c2)CC1 (centres unmarked) :: * (0<Y<=25%)
5. CC1(C)C(=O)N(c2cnc(C#N)c(C(F)(F)F)c2)C(=S)N1c1ccc(OCCN2CCN(CC(=O)Nc3cc(Cl)cc(NC4CCC(=O)NC4=O)c3)CC2)c(CCF)c1 (centres unmarked) :: * (0<Y<=25%)
6. C[C@@H]1CN(CCOc2ccc(N3C(=S)N(c4ccc(C#N)c(C(F)(F)F)c4)C(=O)C3(C)C)cc2C2CCC2)C[C@H](C)N1CC(=O)Nc1cccc(NC2CCC(=O)NC2=O)c1 (some centres unmarked) :: * (0<Y<=25%)
7. CC(C)c1cc(N2C(=S)N(c3ccc(C#N)c(C(F)(F)F)c3)C(=O)C2(C)C)ccc1OCCN1CCN(C2(C(=O)Nc3cccc(NC4CCC(=O)NC4=O)c3)CC2)CC1 (centres unmarked) :: *** (35%<Y<50%)
8. CCc1cc(N2C(=S)N(c3cnc(C#N)c(C(F)(F)F)c3)C(=O)C2(C)C)ccc1OCCN1CCN([C@@H](C)C(=O)Nc2cc(Cl)cc(NC3CCC(=O)NC3=O)c2)CC1 (single isomer, unassigned) :: * (0<Y<=25%)
9. CCc1cc(N2C(=S)N(c3cnc(C#N)c(C(F)(F)F)c3)C(=O)C2(C)C)ccc1OCCN1CCN(CC(=O)Nc2cc(F)cc(NC3CCC(=O)NC3=O)c2)CC1 (centres unmarked) :: * (0<Y<=25%)
10. CCc1cc(N2C(=S)N(c3ccc(C#N)c(C(F)(F)F)c3)C(=O)C2(C)C)ccc1CCCN1C[C@@H](C)N(CC(=O)Nc2cccc(NC3CCC(=O)NC3=O)c2)[C@@H](C)C1 (some centres unmarked) :: * (0<Y<=25%)

// query Dear colleague, I am looking for the recorded Y (AR degradation efficiency, % of DMSO control) of the following compound: C[C@@H]1CN(CCOc2ccc(N3C(=S)N(c4ccc(C#N)c(C(F)(F)F)c4)C(=O)C3(C)C)cc2CCF)CCN1CC(=O)Nc1cc(Cl)cc(NC2CCC(=O)NC2=O)c1 (some centres unmarked)
// result * (0<Y<=25%)

// query Look at this compound and give its reported Y (AR degradation efficiency, % of DMSO control). CCc1cc(N2C(=S)N(c3cnc(C#N)c(C(F)(F)F)c3)C(=O)C23CCC3)ccc1OCCN1CC2CCC(C1)N2CC(=O)Nc1cccc(NC2CCC(=O)NC2=O)c1 (centres unmarked)
// result * (0<Y<=25%)

// query For the compound C[C@@H]1CN(CCOc2ccc(N3C(=S)N(c4ccc(C#N)c(C(F)(F)F)c4)C(=O)C3(C)C)cc2F)CCN1CC(=O)Nc1cccc(NC2CCC(=O)NC2=O)c1 (some centres unmarked) , what Y (AR degradation efficiency, % of DMSO control) is on record?
// result *** (35%<Y<50%)

// query So what does the record say about Y (AR degradation efficiency, % of DMSO control) for CCc1cc(N2C(=S)N(c3ccc(C#N)c(C(F)(F)F)c3)C(=O)C2(C)C)ccc1OCCN1CCN(CC(=O)Nc2cc(C#N)cc(NC3CCC(=O)NC3=O)c2)[C@H](C)C1 (some centres unmarked) ?
// result * (0<Y<=25%)

// query Reported Y (AR degradation efficiency, % of DMSO control), compound CC(C)c1cc(N2C(=S)N(c3cnc(C#N)c(C(F)(F)F)c3)C(=O)C2(C)C)ccc1OCCN1C[C@@H](C)N(CC(=O)Nc2cccc(NC3CCC(=O)NC3=O)c2)[C@@H](C)C1 (some centres unmarked) : ____
// result * (0<Y<=25%)

// query Can you share its Y (AR degradation efficiency, % of DMSO control)? I mean this compound: CCc1cc(N2C(=S)N(c3cnc(C#N)c(C(F)(F)F)c3)C(=O)C23CCC3)ccc1OCCN1CCN(CC(=O)Nc2cccc(NC3CCC(=O)NC3=O)c2)[C@H](C)C1 (some centres unmarked)
// result * (0<Y<=25%)

// query Any idea what its Y (AR degradation efficiency, % of DMSO control) is? The compound is CCc1cc(N2C(=S)N(c3ccc(C#N)c(C(F)(F)F)c3)C(=O)C2(C)C)ccc1OCCN1CCN(CC(=O)Nc2cccc(NC3CCC(=O)NC3=O)c2Cl)CC1 (centres unmarked) [Example 35, hydrochloride]
// result ** (25%<Y<=35%)

// query Fill in: Y (AR degradation efficiency, % of DMSO control) of C[C@@H]1CN(CCOc2ccc(N3C(=S)N(c4cnc(C#N)c(C(F)(F)F)c4)C(=O)C3(C)C)cc2C2CCC2)C[C@H](C)N1CC(=O)Nc1cccc(NC2CCC(=O)NC2=O)c1 (some centres unmarked) is ___
// result ** (25%<Y<=35%)

// query Which value of Y (AR degradation efficiency, % of DMSO control) has been reported for C[C@@H]1CN(CCOc2ccc(N3C(=S)N(c4ccc(C#N)c(Cl)c4)C(=O)C3(C)C)cc2C2CC2)C[C@H](C)N1CC(=O)Nc1cc(NC2CCC(=O)NC2=O)ccc1F (some centres unmarked) in the records?
// result ** (25%<Y<=35%)

// query Which measured Y (AR degradation efficiency, % of DMSO control) value corresponds to CCc1cc(N2C(=S)N(c3ccc(C#N)c(C(F)(F)F)c3)C(=O)C2(C)C)ccc1OCCN1CCN(C2(C(=O)Nc3cccc(NC4CCC(=O)NC4=O)c3)CC2)CC1 (centres unmarked) ?
// result * (0<Y<=25%)
